// provenance: patent US10538555B2

Reported pIC50 values for a set of compounds
# target.of.assay: Human PD-L1/PD-1 (Homo sapiens, UniProt Q9NZQ7)
# Construct: TVMV protease cleavage site (C); made in house; host or cells: HEK293T cells
# Sequence (Q9NZQ7 with tags, fused parts or gaps): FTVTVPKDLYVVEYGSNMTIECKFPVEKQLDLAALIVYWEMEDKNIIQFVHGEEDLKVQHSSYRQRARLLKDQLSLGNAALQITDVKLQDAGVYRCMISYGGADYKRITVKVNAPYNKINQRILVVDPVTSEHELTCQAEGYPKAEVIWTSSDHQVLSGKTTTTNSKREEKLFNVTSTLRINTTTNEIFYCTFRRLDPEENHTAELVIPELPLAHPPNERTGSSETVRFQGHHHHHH
# test.details: HTRF Human PD-L1/PD-1 binding assay (PD-1-Ig/PD-L1-His)
# condition.parameters: PD-L1-His 10 nM, PD-1-Ig 20 nM; class symbol; read-out: HTRF Human PD-L1/PD-1 Binding Assay IC50 Range
pIC50: −log10 of the molar value. Where a SMILES comes first, the peptide text is derived from it. Bridges are numbered along the chain shown (N, C = ends). [ ]: non-standard residue; d: D form. ξ: configuration not given here. Bta = N[C@@H](Cc1csc2ccccc12)C(=O)O; Hyp = O=C(O)[C@@H]1C[C@@H](O)CN1; NMeF = CN[C@@H](Cc1ccccc1)C(=O)O; NMeNle = CCCC[C@H](NC)C(=O)O; Pip = O=C(O)[C@@H]1CCCCN1; NMeA = CN[C@@H](C)C(=O)O; Orn = NCCC[C@H](N)C(=O)O; Dab = NCC[C@H](N)C(=O)O; Dap = NC[C@H](N)C(=O)O; ξC = NC(CS)C(=O)O; Sar = CNCC(=O)O

Observe how each entry below is paired with its result.
| compound | pIC50 |
| --- | --- |
| CCCC[C@H]1C(=O)N(C)[C@@H](CCCC)C(=O)N[C@@H](CCC(=O)O)C(=O)N[C@H](C(=O)NCC(N)=O)CSCC(=O)N[C@@H](Cc2ccc(O)cc2)C(=O)N(C)[C@@H](C)C(=O)N[C@@H](CC(=O)O)C(=O)N2CCC[C@H]2C(=O)N[C@@H](CO)C(=O)N[C@@H](CCC(=O)O)C(=O)N2C[C@H](O)C[C@H]2C(=O)N[C@@H](Cc2c[nH]c3ccccc23)C(=O)N[C@@H](CCN)C(=O)N[C@@H](Cc2c[nH]c3ccccc23)C(=O)N1C [Example 5252] ({CH2CO}-Y[NMeA]DPSE[Hyp]W[Dab]W[NMeNle][NMeNle]ECG-NH2; thioether N-14) | 8.00 to 9.00 |
| CCCC[C@H]1C(=O)N2CCC[C@@H]2C(=O)N[C@@H](CC(=O)O)C(=O)N[C@@H](C(C)C)C(=O)N(C)[C@@H](Cc2ccccc2)C(=O)N[C@@H](CCCN)C(=O)N2CCC[C@@H]2C(=O)N[C@@H](Cc2c[nH]c3ccccc23)C(=O)N[C@@H](Cc2ccc(O)cc2)C(=O)N[C@@H](CC(C)C)C(=O)N[C@H](C(=O)NCC(N)=O)CSCC(=O)N[C@@H](Cc2ccccc2)C(=O)N(C)[C@@H](Cc2ccccc2)C(=O)N1C [Example 10103] ({CH2CO}-F[NMeF][NMeNle][dP]DV[NMeF][Orn][dP]WYLCG-NH2; thioether N-13) | 8.00 to 9.00 |
| CCCC[C@H]1C(=O)N(C)[C@@H](CCCC)C(=O)N[C@@H](C)C(=O)N[C@H](C(=O)NCC(N)=O)CSCC(=O)N[C@@H](Cc2ccc(O)cc2)C(=O)N2CCCC[C@H]2C(=O)N[C@@H](CC(=O)O)C(=O)N2CCC[C@H]2C(=O)N[C@@H](CN)C(=O)N[C@@H](CCC(=O)O)C(=O)N2C[C@H](O)C[C@H]2C(=O)N[C@@H](Cc2c[nH]c3ccccc23)C(=O)N[C@@H](CO)C(=O)N[C@@H](Cc2csc3ccccc23)C(=O)N1C [Example 1510] ({CH2CO}-Y[Pip]DP[Dap]E[Hyp]WS[Bta][NMeNle][NMeNle]ACG-NH2; thioether N-14) | 8.00 to 9.00 |
| CCCC[C@H]1C(=O)N(C)[C@@H](CCCC)C(=O)N[C@@H](C)C(=O)N[C@H](C(=O)NCC(N)=O)CSCC(=O)N[C@@H](Cc2ccc(O)cc2)C(=O)N2CCNC[C@H]2C(=O)N[C@@H](CC(N)=O)C(=O)N2CCC[C@H]2C(=O)N[C@@H](Cc2c[nH]cn2)C(=O)N[C@@H](CC(C)C)C(=O)N2C[C@H](O)C[C@H]2C(=O)N[C@@H](Cc2c[nH]c3ccccc23)C(=O)N[C@@H](CO)C(=O)N[C@@H](Cc2c[nH]c3ccccc23)C(=O)N1C [Example 1529] | 8.00 to 9.00 |
| CCCC[C@H]1C(=O)N(C)[C@@H](CCCC)C(=O)N[C@@H](CCCNC(=N)N)C(=O)NC(C(=O)NCC(N)=O)CSCC(=O)N[C@@H](Cc2ccc(O)cc2)C(=O)N(C)[C@@H](C)C(=O)N[C@@H](CC(N)=O)C(=O)N2CCC[C@H]2C(=O)N[C@@H](CC(N)=O)C(=O)N[C@@H](CC(N)=O)C(=O)N2C[C@H](O)C[C@H]2C(=O)N[C@@H](Cc2c[nH]c3ccccc23)C(=O)N[C@@H](CO)C(=O)N[C@@H](Cc2c[nH]c3ccccc23)C(=O)N1C (some centres unmarked) [Example 10014] ({CH2CO}-Y[NMeA]NPNN[Hyp]WSW[NMeNle][NMeNle]R[ξC]G-NH2; thioether N-14) | 7.00 to 8.00 |

Input: Which pIC50 value belongs to CCCC[C@H]1C(=O)N2CCC[C@@H]2C(=O)N[C@@H](CO)C(=O)N[C@@H](C)C(=O)N(C)[C@@H](Cc2ccccc2)C(=O)N[C@@H](Cc2ccc(O)cc2)C(=O)N(C)CC(=O)N[C@@H](Cc2csc3ccccc23)C(=O)N[C@@H](Cc2ccc(O)cc2)C(=O)N[C@@H](CC(C)C)C(=O)N[C@H](C(=O)NCC(N)=O)CSCC(=O)N[C@@H](Cc2ccccc2)C(=O)N(C)[C@@H](Cc2ccccc2)C(=O)N1C [Example 10055] ({CH2CO}-F[NMeF][NMeNle][dP]SA[NMeF]Y[Sar][Bta]YLCG-NH2; thioether N-13) ?
Output: 6.00 to 7.00

Input: Which pIC50 value belongs to CCCC[C@H]1C(=O)N(C)[C@@H](CCCC)C(=O)N[C@@H](C)C(=O)NC(C(=O)NCC(N)=O)CSCC(=O)N[C@@H](Cc2ccc(O)cc2)C(=O)N(C)[C@@H](C)C(=O)N[C@@H](CC(N)=O)C(=O)N2CCC[C@H]2C(=O)N[C@@H](CC(N)=O)C(=O)N[C@@H](CC(C)C)C(=O)N2C[C@H](O)C[C@H]2C(=O)N[C@@H](Cc2c[nH]c3ccccc23)C(=O)N[C@@H](CO)C(=O)N[C@@H](Cc2c[nH]c3ccccc23)C(=O)N1C (some centres unmarked) [Example 9134] ?
Output: 8.00 to 9.00

Input: Which pIC50 value belongs to CCCC[C@H]1C(=O)N(C)[C@@H](C)C(=O)N[C@@H](CCCNC(=N)N)C(=O)NC(C(=O)N[C@@H](CO)C(N)=O)CSCC(=O)N[C@@H](Cc2ccc(O)cc2)C(=O)N(C)[C@@H](C)C(=O)N[C@@H](CC(N)=O)C(=O)N2CCC[C@H]2C(=O)N[C@@H](CO)C(=O)N[C@H](CC(C)C)C(=O)N2C[C@H](O)C[C@H]2C(=O)N[C@@H](Cc2c[nH]c3ccccc23)C(=O)N[C@@H](CO)C(=O)N[C@@H](Cc2csc3ccccc23)C(=O)N1C (stereo partly drawn) [Example 9124] ({CH2CO}-Y[NMeA]NPS[dL][Hyp]WS[Bta][NMeNle][NMeA]R[ξC]S-NH2; thioether N-14) ?
Output: 7.00 to 8.00

* * *

# target.of.assay: Human PD-L1/PD-1 (Homo sapiens)
# Construct: TVMV protease cleavage site (C); made in house; host or cells: HEK293T cells
# test.details: HTRF Human PD-L1/PD-1 binding assay (PD-1-Ig/PD-L1-His)
# condition.parameters: PD-L1-His 10 nM, PD-1-Ig 20 nM; class symbol; read-out: HTRF Human PD-L1/PD-1 Binding Assay IC50 Range
Where a SMILES comes first, the peptide text is derived from it. Bridges are numbered along the chain shown (N, C = ends). [ ]: non-standard residue; d: D form. ξ: configuration not given here. Bta = N[C@@H](Cc1csc2ccccc12)C(=O)O; NMeNle = CCCC[C@H](NC)C(=O)O; hSer = N[C@@H](CCO)C(=O)O; NMeA = CN[C@@H](C)C(=O)O; ξC = NC(CS)C(=O)O
test.readout: IC50

Input: Which IC50 value belongs to CCCC[C@H]1C(=O)N(C)[C@@H](CCCC)C(=O)N[C@@H](CCCNC(=N)N)C(=O)NC(C(=O)NCC(N)=O)CSCC(=O)N[C@@H](Cc2ccc(O)cc2)C(=O)N(C)[C@@H](C)C(=O)N[C@@H](CC(N)=O)C(=O)N2CCC[C@H]2C(=O)N[C@@H](CO)C(=O)N[C@@H](CCO)C(=O)N2CCC[C@H]2C(=O)N[C@@H](Cc2c[nH]c3ccccc23)C(=O)N[C@@H](CO)C(=O)N[C@@H](Cc2csc3ccccc23)C(=O)N1C (stereo partly shown) [Example 10025] ({CH2CO}-Y[NMeA]NPS[hSer]PWS[Bta][NMeNle][NMeNle]R[ξC]G-NH2; thioether N-14) ?
Output: 1 to 9.9 nM
